Please respond with reported normalized growth for every item in the list.
ASSAY_OVERVIEW: chemical genetic growth profiling, strain panel (AID 1159580);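 note: tested at 20 µM; growth read once vehicle control cultures reached saturation at 30 °C; 1 = growth at the plate median or of vehicle wells; lower values mean less growth of the strain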
RUN_PARAMETERS: S. cerevisiae deletion strains, growth OD, locus YOR069W, strain VPS5, hits give low values
Among all 5,500 compounds or so, about 2,000 (36%) were called active. Not shown: some 18% with an inconclusive outcome. This is one part of the list.
Write no unit; give the number alone.

// normalized growth lookup, key: Cc1cc(=O)oc2cc(O)c(O)cc12 1.01

Try this compound next: O=C(NCO)c1cccnc1 0.989

Try this compound next: CC(C)CCCC(C)[C@H]1CCC2C3CC[C@@H]4C[C@H](O)CC[C@]4(C)C3CC[C@@]21C (stereo partly specified) 1.01

Try this compound next: Nc1ccc(S(=O)(=O)NC(=O)c2ccccc2)cc1 1.01

Try this compound next: CC(CCc1ccccc1)NCC(O)c1ccc(O)c(C(N)=O)c1 (stereo unspecified) 1

Try this compound next: CC(C)CCCC(C)C1CCC2C3CC(=O)[C@H]4C[C@@H](O)CC[C@]4(C)C3CC[C@]12C (stereo partly specified) 1
